Target Desc: PPARγ (Homo sapiens, UniProt P37231)
Construct: Receptor expression plasmid (GAL4-hPPARα, LBD GAL4-hPPARγ LBD, GAL4-hPPARδ LBD); expressed in transfected cells; host or cells: CV-1 cells
Sequence (P37231 238-503 limits assumed): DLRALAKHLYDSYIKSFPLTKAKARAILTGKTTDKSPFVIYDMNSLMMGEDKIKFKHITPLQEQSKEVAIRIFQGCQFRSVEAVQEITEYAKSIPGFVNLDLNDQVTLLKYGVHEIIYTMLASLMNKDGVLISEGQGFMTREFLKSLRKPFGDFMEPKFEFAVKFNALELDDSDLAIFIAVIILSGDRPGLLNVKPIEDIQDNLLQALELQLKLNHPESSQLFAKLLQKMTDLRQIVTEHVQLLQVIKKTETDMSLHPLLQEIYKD
Protocol Summary: PPARγ transactivation activity (GAL4-hPPARγ LBD / UASx4-TK-LUC reporter in CV-1 cells)
Type: cell-based
Recorded Conditions: CV-1; in the manner as described in Example 9; Table 26; read-out: PPARγ (PPAR activating power)
Reported Emax values follow for various molecules

>  <Molecule>
CC(C)c1oc(-c2ccc3ccccc3c2O)nc1CCC(=O)c1ccc(OC(C)(C)C(=O)O)cc1

>  <Emax / %>
5

$$$$
>  <Molecule>
CC(C)c1oc(-c2cccc(Cl)c2Cl)nc1CCC(=O)c1ccc(OC(C)(C)C(=O)O)cc1

>  <Emax / %>
19

$$$$
>  <Molecule>
CC(C)c1oc(-c2cccc(Cl)c2O)nc1CCC(=O)c1ccc(OC(C)(C)C(=O)O)cc1

>  <Emax / %>
4

$$$$
>  <Molecule>
CC(C)c1oc(-c2cc3ccccc3o2)nc1CCC(=O)c1ccc(OC(C)(C)C(=O)O)cc1

>  <Emax / %>
9

$$$$
>  <Molecule>
CCCc1c(OCCCOc2ccc(OCC(=O)O)cc2)ccc(C(C)=O)c1O [Example L-165041, reference compound]

>  <Emax / %>
1

$$$$
>  <Molecule>
CC(C)c1oc(-c2ccc(-c3ccccc3)cc2Cl)nc1CCC(=O)c1ccc(OC(C)(C)C(=O)O)cc1

>  <Emax / %>
18

$$$$
>  <Molecule>
CC(C)c1oc(-c2cc3ccccc3cc2O)nc1CCC(=O)c1ccc(OC(C)(C)C(=O)O)cc1

>  <Emax / %>
18

$$$$
>  <Molecule>
CC(C)c1oc(-c2ccc(Br)cc2Cl)nc1CCC(=O)c1ccc(OC(C)(C)C(=O)O)cc1

>  <Emax / %>
3

$$$$

Hey, just so you know, these numbers are from patent US6787552B2.
